tested on: HS 578T breast; assay: NCI tumour cell line growth inhibition, 48 h
Measurement kind: TGI

COP(=O)(OC)C(Nc1ccc(Cc2ccc(NC(c3ccco3)P(=O)(OC)OC)cc2)cc1)c1ccco1 (configuration not stated) ... > 100 µM
C/C1=C\CC[C@@](C)(O)[C@@H]2C[C@H](CC/C(C)=C/CC1)C1(CC1)C(=O)O2 ... 60 µM

Query :: What measured TGI goes with COc1cc(C(O)c2ccc3c(c2)OCO3)cc(OC)c1OC (configuration not stated) ?
Result :: > 100 µM

Query :: Now give it for COc1ccc(Oc2cnn(C(Br)(Br)C(C)=O)c(=O)c2Br)cc1 too.
Result :: > 71.6 µM

Attribution: PubChem BioAssay (NCI)
